Listed next: entries and their corresponding pEC50.
Molecular target: Cloned human M1 receptor (CHRM1) (Homo sapiens, UniProt P11229)
Sequence (P11229 1-460): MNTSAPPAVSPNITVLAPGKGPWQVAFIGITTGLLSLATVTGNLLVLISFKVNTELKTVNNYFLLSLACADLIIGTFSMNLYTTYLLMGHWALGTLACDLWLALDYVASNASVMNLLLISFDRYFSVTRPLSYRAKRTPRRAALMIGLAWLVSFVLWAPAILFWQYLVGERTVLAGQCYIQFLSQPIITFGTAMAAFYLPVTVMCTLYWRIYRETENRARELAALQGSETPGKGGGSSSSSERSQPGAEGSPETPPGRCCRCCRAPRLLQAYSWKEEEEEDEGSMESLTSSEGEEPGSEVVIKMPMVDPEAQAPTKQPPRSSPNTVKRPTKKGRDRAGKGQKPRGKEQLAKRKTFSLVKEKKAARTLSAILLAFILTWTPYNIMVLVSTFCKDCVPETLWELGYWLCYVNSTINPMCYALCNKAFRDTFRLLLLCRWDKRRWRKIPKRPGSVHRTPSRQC
Assay: CHRM1 Ca++ Flux Assay (HEK293 M1 cells, agonist mode)
Details: geometric mean if tested more than once, read-out: M1 FDSS EC50
pEC50: −log10 of the molar value.
observable: pEC50

1) Fc1ccc(OC[C@@H]2COCCO2)c(C2CCN([C@@H]3COC4(C3)CN(c3nncs3)C4)CC2)c1 :: 6.43
2) Cc1nnc(COc2ccc(F)cc2C2CCN([C@@H]3COC4(C3)CN(c3nnco3)C4)CC2)o1 :: 7.21
3) Fc1ccc(OCC2CCOCC2)c(C2CCN([C@@H]3COC4(C3)CN(c3nnco3)C4)CC2)c1 :: 5.39
4) Fc1ccc(OCC2COC2)c(C2CCN([C@@H]3COC4(C3)CN(c3nncs3)C4)CC2)c1 :: 6.26
5) CC1(COc2ccc(F)cc2C2CCN([C@@H]3COC4(C3)CN(c3nnco3)C4)CC2)COC1 :: 5.87
6) COc1cc(F)ccc1C1CCN([C@@H]2COC3(C2)CN(c2nncs2)C3)CC1 :: 5.75
7) CC1(C)C[C@@H](Oc2ccc(F)cc2C2CCN([C@@H]3COC4(C3)CN(c3nnco3)C4)CC2)CO1 (single isomer, unassigned) [Example 2N] :: 5.29
8) Fc1ccc(O[C@@H]2CCOC2)c(C2CCN([C@@H]3COC4(C3)CN(c3nncs3)C4)CC2)c1 :: 6.36
9) CC(C)(O)CCOc1cc(F)ccc1C1CCN([C@@H]2COC3(C2)CN(c2nncs2)C3)CC1 :: 6.10
10) c1ccc(C2CCN([C@@H]3COC4(C3)CN(c3ncco3)C4)CC2)c(OC2CC3(COC3)C2)c1 :: 5.55
11) CCC1(COc2ccc(F)cc2C2CCN([C@@H]3COC4(C3)CN(c3nnco3)C4)CC2)COC1 :: 5.68
12) COc1ccc(F)cc1C1CCN([C@@H]2COC3(C2)CN(c2nnco2)C3)CC1 :: 6.18
13) COCCOc1ccc(F)cc1C1CCN([C@@H]2COC3(C2)CN(c2ncco2)C3)CC1 :: 6.47
14) Fc1ccc(OC2COCOC2)c(C2CCN([C@@H]3COC4(C3)CN(c3nnco3)C4)CC2)c1 :: 5.86
15) Fc1cc(O[C@@H]2CCOC2)c(C2CCN([C@@H]3COC4(C3)CN(c3nnco3)C4)CC2)cc1F :: 6.17
16) Fc1ccc(OC[C@H]2COCCO2)c(C2CCN([C@@H]3COC4(C3)CN(c3ncco3)C4)CC2)c1 :: 6.37

---

Listed next: entries and their corresponding pEC50.
Biological target: Cloned human M1 receptor (CHRM1) (Homo sapiens)
Sequence (P11229 1-460): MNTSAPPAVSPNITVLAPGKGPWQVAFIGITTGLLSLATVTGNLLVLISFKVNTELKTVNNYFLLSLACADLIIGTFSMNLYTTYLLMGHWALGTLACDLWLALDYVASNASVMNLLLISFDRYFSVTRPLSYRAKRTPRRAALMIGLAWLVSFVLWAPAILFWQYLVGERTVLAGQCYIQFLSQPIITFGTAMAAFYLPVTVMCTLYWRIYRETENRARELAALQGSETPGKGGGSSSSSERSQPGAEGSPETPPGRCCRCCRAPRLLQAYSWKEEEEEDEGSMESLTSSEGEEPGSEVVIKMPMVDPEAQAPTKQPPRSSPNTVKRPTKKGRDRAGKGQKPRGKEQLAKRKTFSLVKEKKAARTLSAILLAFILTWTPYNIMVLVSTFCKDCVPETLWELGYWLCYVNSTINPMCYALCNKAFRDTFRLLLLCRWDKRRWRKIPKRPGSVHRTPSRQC
Test: CHRM1 Ca++ Flux Assay (HEK293 M1 cells, agonist mode)
Details: geometric mean if tested more than once, read-out: M1 FDSS EC50
Source text: The above examples were characterized by measuring the intracellular mobilization of Ca^++ ions caused by signaling events mediated by the receptor. […]
pEC50: −log10 of the molar value.
observable: pEC50

1. c1ccc(C2CCN([C@@H]3COC4(C3)CN(c3nnco3)C4)CC2)c(CC2CCOCC2)c1 [Example 3G] :: 5.14
2. Fc1ccc(OC[C@H]2COCCO2)c(C2CCN([C@@H]3COC4(C3)CN(c3nncs3)C4)CC2)c1 [Example 5K] :: 6.36
3. Fc1ccc(C2CCOCC2)c(C2CCN([C@@H]3COC4(C3)CN(c3ncco3)C4)CC2)c1 [Example 4W] :: 5.96
4. Fc1ccc(OC[C@H]2COCCO2)c(C2CCN([C@@H]3COC4(C3)CN(c3nnco3)C4)CC2)c1 [Example 1C] :: 6.24

---

molecular target: Cloned human M1 receptor (CHRM1) (Homo sapiens); construct: expressed in transfected cells; host or cells: HEK293; assay: CHRM1 Ca++ Flux Assay (HEK293 M1 cells, agonist mode); assay type: cell-based; settings: geometric mean if tested more than once, read-out: M1 FDSS EC50
Listed next: entries and their corresponding EC50.
observable: EC50 (nM)

1) Fc1cc(OCC2(F)COC2)c(C2CCN([C@@H]3COC4(C3)CN(c3ncco3)C4)CC2)cc1F :: 334
2) Fc1ccc(OC[C@H]2CCOC2)c(C2CCN([C@@H]3COC4(C3)CN(c3nnco3)C4)CC2)c1 :: 980
3) CC(C)(O)COc1ccc(F)cc1C1CCN([C@@H]2COC3(C2)CN(c2ncco2)C3)CC1 :: 444
4) Fc1cc(F)c(OC2CC3(COC3)C2)c(C2CCN([C@@H]3COC4(C3)CN(c3nnco3)C4)CC2)c1 :: 6660
5) Fc1ccc(OCc2ncccn2)c(C2CCN([C@@H]3COC4(C3)CN(c3nnco3)C4)CC2)c1 :: 98
6) c1ccc([C@@H]2CCOC2)c(C2CCN([C@@H]3COC4(C3)CN(c3nnco3)C4)CC2)c1 (single isomer, unassigned) [Example 3A] :: 1110
7) COc1ccccc1C1CCN([C@@H]2COC3(C2)CN(c2ncco2)C3)CC1 :: 384

---

Target: human cloned CHRM4 receptor (Homo sapiens)
Construct: expressed in transfected cells; host or cells: CHO-K1 (M4_CHO)
Sequence (P08173 1-479): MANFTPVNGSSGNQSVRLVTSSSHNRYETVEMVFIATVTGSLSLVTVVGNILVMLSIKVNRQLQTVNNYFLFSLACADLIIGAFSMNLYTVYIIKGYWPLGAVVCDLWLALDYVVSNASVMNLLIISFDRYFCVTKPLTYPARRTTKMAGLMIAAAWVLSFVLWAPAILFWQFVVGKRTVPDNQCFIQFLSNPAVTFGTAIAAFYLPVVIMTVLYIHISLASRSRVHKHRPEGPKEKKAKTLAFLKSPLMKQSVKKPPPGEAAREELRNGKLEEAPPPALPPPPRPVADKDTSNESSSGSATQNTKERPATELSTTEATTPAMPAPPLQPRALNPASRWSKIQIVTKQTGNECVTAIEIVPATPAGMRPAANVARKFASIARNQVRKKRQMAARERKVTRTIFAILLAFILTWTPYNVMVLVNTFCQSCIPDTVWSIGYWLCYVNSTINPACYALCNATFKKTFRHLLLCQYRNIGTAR
Assay: CHRM4 Ca++ Flux Assay (M4_CHO cells, agonist mode)
Type: cell-based
Details: Percent Activity (PA), read-out: M4 FDSS PA %
observable: Emax (%)

1) Fc1cc(OCC2COC2)c(C2CCN([C@@H]3COC4(C3)CN(c3ncco3)C4)CC2)cc1F [Example 4O] :: 58
2) c1ccc(C2CCN([C@@H]3COC4(C3)CN(c3nnco3)C4)CC2)c(OC2COC2)c1 [Example 1P] :: 94
3) Fc1ccc(OC[C@H]2COCCO2)c(C2CCN([C@@H]3COC4(C3)CN(c3ncco3)C4)CC2)c1 [Example 4B] :: 77
4) Fc1ccc(OC2COC2)c(C2CCN([C@@H]3COC4(C3)CN(c3ncon3)C4)CC2)c1 [Example 6B] :: 79
5) c1ccc(C2CCN([C@@H]3COC4(C3)CN(c3nnco3)C4)CC2)c(C2CCOCC2)c1 [Example 3C] :: 85
6) CCC1(COc2ccc(F)cc2C2CCN([C@@H]3COC4(C3)CN(c3nnco3)C4)CC2)COC1 [Example 2P] :: 75
7) CC1(COc2ccc(F)cc2C2CCN([C@@H]3COC4(C3)CN(c3nnco3)C4)CC2)COC1 [Example 2K] :: 82
8) COc1ccccc1C1CCN([C@@H]2COC3(C2)CN(c2ncco2)C3)CC1 [Example 4N] :: 74

Cited source: patent US11485742B2
